- Test system: NDR1
- Construct: gene STK38
- experimental-context: concentration: 1 μM, replicates: in singlicate; n = 1;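 also: KINOMEscan kinase panel screen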
Reported %Inh by item:
The answer is to be given in %; state only the numeric part.

Please review the entries below; each comes with its answer.
1) CC(C)(C)c1ccc(C(=O)Nc2cn3cc(-c4cccnc4)ccc3n2)cc1: 49
2) Cc1cccc(-c2nc(C)cc(Nc3ccncc3)n2)n1: 7
3) Cc1cccc(-c2nc(Nc3ccc4[nH]ncc4c3)c3ccccc3n2)n1: 26
4) O=C(Nc1ccc2c(c1)OCO2)NC1CCN(c2ccnc(Nc3ccc(F)cc3)n2)C1 (stereo not drawn): 0
5) O=C(Nc1n[nH]c2nc(-c3nccs3)c(Br)cc12)C1CC1: 0
6) COC(=O)c1c(-c2ccccc2)c2cc(C(=O)O)ccc2c(=O)n1Cc1ccccc1: 2
7) CCCc1ccc(S(=O)(=O)NC2CCN(c3ccnc(Nc4ccc(F)cc4)n3)C2)cc1 (stereo not drawn): 0
8) COc1cc(Nc2nccc(N3CCC(NC(=O)Nc4cc(C)ccc4C)C3)n2)cc(OC)c1OC (stereo not drawn): 0
9) COc1cc2ncnc(Nc3ccc4nc(-c5ccccc5)[nH]c4c3)c2cc1OC.Cl: 17
10) O=c1cc(N2CCOCC2)nc2n(Cc3cccc(Cl)c3Cl)ccn12: 12

Enquiry: Recall the recorded %Inh for O=C(Nc1n[nH]c2cc(-c3cccc(F)c3F)ccc12)C1CC1 with NDR1 and state it.
Return: 5

Enquiry: Recall the recorded %Inh for COc1ccccc1-c1ccc2c(NC(=O)C3CC3)n[nH]c2n1 with NDR1 and state it.
Return: 8

Enquiry: Recall the recorded %Inh for Cc1c(O)cccc1Nc1ccnc2ccc(C(F)(F)F)cc12.Cl with NDR1 and state it.
Return: 0

----------
- Tested on: ADCK3
- Construct: gene CABC1
- experimental-context: concentration: 1 μM, replicates: in singlicate; n = 1
Reported %Inh by item:
The answer is to be given in %; state only the numeric part.

Please review the entries below; each comes with its answer.
1. O=c1cc(N2CCOCC2)nc2n(Cc3cccc(Cl)c3Cl)ccn12: 27
2. Cc1cccc(-c2nc(-c3ccc(S(C)(=O)=O)cc3)sc2-c2ccnc(NCCc3ccccc3)c2)c1: 0
3. CC1=C(C(=O)Nc2cc3cn[nH]c3cc2F)C(c2ccc(C(F)(F)F)cc2)CC(=O)N1 (stereo not shown): 11
4. COc1cccc(NC(=O)NC2CCN(c3ccnc(Nc4ccc(F)cc4)n3)C2)c1 (stereo not shown): 1
5. Cc1cc(NCC(c2ccccc2)c2ccccc2)nc(NCc2ccc(C(F)(F)F)cc2)n1: 10

Enquiry: %Inh for Cl.O=C(Nc1cccc(-c2nn3ncccc3c2-c2ccnc(Nc3cccnc3)n2)c1)c1c(F)cccc1F ?
Return: 27

Enquiry: %Inh for Cn1cncc1-c1ccc2ncnc(Nc3ccc(OCc4ccccc4)cc3)c2c1 ?
Return: 27

Enquiry: %Inh for O=C(Nc1n[nH]c2cc(-c3cccc(F)c3F)ccc12)C1CC1 ?
Return: 6

Enquiry: %Inh for O=C(Nc1ccc2c(c1)OCO2)NC1CCN(c2ccnc(Nc3ccc(F)cc3)n2)C1 (stereo not shown) ?
Return: 6

Enquiry: %Inh for Fc1cc(Cl)ccc1Nc1ccnc2cc(I)ccc12 ?
Return: 0

----------
Reported %Inh by item:
- Tested on: MARK3
- experimental-context: concentration: 1 μM, replicates: in singlicate; n = 1
The answer is to be given in %; state only the numeric part.

1. Cc1ccc(NC(=O)Nc2cc(C(C)(C)C)nn2-c2ccccc2)cc1 [GSK1014915]: 17

Enquiry: %Inh for Nc1ncnc2[nH]c(-c3ccccc3)nc12 [AH5015] ?
Return: 0

Enquiry: %Inh for Cc1c(O)cccc1Nc1ccnc2ccc(C(F)(F)F)cc12.Cl [GW466413] ?
Return: 0

Enquiry: %Inh for COc1ccc(Nc2nccc(-c3cccc(NC(=O)c4cc5cc(F)ccc5[nH]4)c3)n2)cc1 [GSK1229782] ?
Return: 0

Enquiry: %Inh for O=C(Nc1n[nH]c2cc(-c3cccc(F)c3F)ccc12)C1CC1 [SB-733894] ?
Return: 0

Enquiry: %Inh for Cn1ccc2ncnc(Oc3ccc(NC(=O)Nc4ccccc4)cc3)c21 ?
Return: 50

Enquiry: %Inh for COc1cc2ncnc(Nc3ccc4nc(-c5ccccc5)[nH]c4c3)c2cc1OC.Cl [GW282450] ?
Return: 0

Enquiry: %Inh for CCCc1ccc(S(=O)(=O)NC2CCN(c3ccnc(Nc4ccc(F)cc4)n3)C2)cc1 (stereo not drawn) [GSK1379715] ?
Return: 0

Enquiry: %Inh for CC(=O)Nc1nc2cnc(Nc3cc(NC(=O)c4cccc(CCC#N)c4)ccc3C)nc2s1 ?
Return: 0

----------
Reported %Inh by item:
- System: AKT1
- experimental-context: concentration: 1 μM, replicates: in singlicate; n = 1
The answer is to be given in %; state only the numeric part.

Enquiry: %Inh for Cc1cccc(-c2nc(Nc3ccc4[nH]ncc4c3)c3ccccc3n2)n1 [GW857175] ?
Return: 29

Enquiry: %Inh for Cl.Oc1ccc(-c2nc(-c3ccccc3)[nH]c2-c2ccncc2)cc1 [SB-428218] ?
Return: 0

Enquiry: %Inh for Cl.O=C(Nc1cccc(-c2nn3ncccc3c2-c2ccnc(Nc3cccnc3)n2)c1)c1c(F)cccc1F [GSK312879] ?
Return: 0

Enquiry: %Inh for Clc1cc(Cl)cc(Nc2ccnc(Nc3cc(Cl)cc(Cl)c3)n2)c1 [GSK175726] ?
Return: 0

Enquiry: %Inh for Cc1ccccc1-n1cnc2c(N)ncnc21 [SKF-97510] ?
Return: 8

Enquiry: %Inh for CC(C)(C)c1ccc(C(=O)Nc2cn3cc(Cl)ccc3n2)cc1 ?
Return: 5

Enquiry: %Inh for Cc1cccc(-c2nc(C)cc(Nc3ccncc3)n2)n1 [GSK257997] ?
Return: 0

Enquiry: %Inh for COc1cc2ncn(-c3cc(OCC4CCCO4)c(C(N)=O)s3)c2cc1OC (stereo not drawn) [GSK204607] ?
Return: 0

Enquiry: %Inh for Fc1cc(Cl)ccc1Nc1ccnc2cc(-c3ccc(CN4CCCCC4)o3)ccc12 [GW560116] ?
Return: 0

----------
Reported %Inh by item:
- Test system: TAOK2
- experimental-context: concentration: 1 μM, replicates: in singlicate; n = 1
The answer is to be given in %; state only the numeric part.

Please review the entries below; each comes with its answer.
1. O=C(Nc1n[nH]c2nc(-c3nccs3)c(Br)cc12)C1CC1 [SB-742251]: 0
2. Cc1ccccc1-n1cnc2c(N)ncnc21 [SKF-97510]: 0
3. NC(=O)c1nnc2ccccc2c1N: 28

Enquiry: %Inh for COc1cccc(-c2cc(-c3c[nH]nc3-c3ccccn3)ccn2)c1 [GW680338] ?
Return: 0

Enquiry: %Inh for Cc1ccc(-c2cc(-c3c[nH]nc3-c3ccccn3)ccn2)cc1 [GW684088] ?
Return: 0

Enquiry: %Inh for Cn1ccc2ncnc(Oc3ccc(NC(=O)Nc4ccccc4)cc3)c21 ?
Return: 0

Enquiry: %Inh for O=C(Nc1n[nH]c2cc(-c3cccc(F)c3F)ccc12)C1CC1 [SB-733894] ?
Return: 0

Enquiry: %Inh for COc1cc(Nc2nccc(N3CCC(NC(=O)Nc4cc(C)ccc4C)C3)n2)cc(OC)c1OC (stereo not shown) [GSK1379762] ?
Return: 0

Enquiry: %Inh for O=C(Nc1ccccc1)Nc1cccc(Oc2ccc3nccn3n2)c1 ?
Return: 0

Enquiry: %Inh for CC1=C(C(=O)Nc2cc3cn[nH]c3cc2F)C(c2ccc(C(F)(F)F)cc2)CC(=O)N1 (stereo not shown) [GSK429286] ?
Return: 0

Enquiry: %Inh for CCn1c(-c2cccnc2O)nc2cnccc21 [SB-736715] ?
Return: 0

Enquiry: %Inh for Cc1cccc(-c2nc(-c3ccc(S(C)(=O)=O)cc3)sc2-c2ccnc(NCCc3ccccc3)c2)c1 ?
Return: 12

Enquiry: %Inh for Cc1cc(-c2ccc3c(c2)CC[C@@H](N[C@@H](C)c2ccccc2)C3)cnc1N.Cl [GW412617] ?
Return: 0

Enquiry: %Inh for COc1ccccc1CNC(=O)c1cc(C(=O)c2ccccc2C)c[nH]1 [GSK364507] ?
Return: 0

Enquiry: %Inh for Cc1cccc(-c2nc(Nc3ccc4[nH]ncc4c3)c3ccccc3n2)n1 [GW857175] ?
Return: 9

Enquiry: %Inh for Clc1cc(Cl)cc(Nc2ccnc(Nc3cc(Cl)cc(Cl)c3)n2)c1 [GSK175726] ?
Return: 6

Enquiry: %Inh for Cl.c1ccc(-c2n[nH]cc2-c2ccnc(-c3ccc(CN4CCOCC4)cc3)c2)nc1 [GW776245] ?
Return: 5

Enquiry: %Inh for CC(=O)Nc1nc2cnc(Nc3cc(NC(=O)c4cccc(CCC#N)c4)ccc3C)nc2s1 ?
Return: 0

Enquiry: %Inh for Cc1ccc(NC(=O)Nc2cccc(Cl)c2)cc1-c1ccc(C(=O)Nc2ccncc2)cc1 [GSK1398468] ?
Return: 0
